Provenance of the data: patent US20250250357A1

- tested-target: T1, human MSLN-R3 protein (human, UniProt Q13421 487-598)
- T1 construct: also called hMSLN-R3
- T1 sequence (Q13421 495-606, form in doubt): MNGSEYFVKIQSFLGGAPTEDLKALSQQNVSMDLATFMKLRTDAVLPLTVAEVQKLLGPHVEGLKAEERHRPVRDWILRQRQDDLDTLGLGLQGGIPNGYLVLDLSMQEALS
- assay-text: ELISA on coated antigen, antibody 10 nM
measured-metric: OD450 (OD450)
Give the value in OD450 but do not write OD450 after it.

As a guide, the following entries are already answered.
F7.44.20-H15 (scFv, not shown: small tags and cut ends, also called S009-F7.44.20 humanized antibody VH2a + VL3) scFv: EVQLVQSGAEVKKPGASVKVSCKASGYTFTDYNMDWVRQAPGQGLEWMGDINPSTGGTIYNQKFSGRVTMTEDKSASTVYMELSSLRSEDTAVYYCARRRIGTGYFDVWGQGTTVTVSSGGGGSGGGGSGGGGSEIVLTQSPATLSLSPGERATLSCSASSSVISSYLSWYQQKPGQSPRLLIYRTSNLASGIPARFSGSGSGTDYTLTISSLEPEDFAVYYCHQWSSFPYTFGGGTKVEIK: 1.85
F7.44.20-H16 (scFv, not shown: small tags and cut ends, also called S009-F7.44.20 humanized antibody VH2a + VL4) scFv: EVQLVQSGAEVKKPGASVKVSCKASGYTFTDYNMDWVRQAPGQGLEWMGDINPSTGGTIYNQKFSGRVTMTEDKSASTVYMELSSLRSEDTAVYYCARRRIGTGYFDVWGQGTTVTVSSGGGGSGGGGSGGGGSEIVLTQSPATLSLSPGERATLSCSASSSVISSYLSWYQQKPGSSPRLLIYRTSNLASGIPARFSGSGSGTDYTLTISSLEPEDFAVYYCHQWSSFPYTFGGGTKVEIK: 1.6
F7.44.20-H12 (scFv, not shown: small tags and cut ends, also called S009-F7.44.20 humanized antibody VH2 + VL4) scFv: EVQLVQSGAEVKKPGASVKVSCKASGYTFTDYNMDWVRQAPGQGLEWMGDINPSTGGTIYNQKFNGRVTMTEDKSASTVYMELSSLRSEDTAVYYCARRRIGTGYFDVWGQGTTVTVSSGGGGSGGGGSGGGGSEIVLTQSPATLSLSPGERATLSCSASSSVISSYLSWYQQKPGSSPRLLIYRTSNLASGIPARFSGSGSGTDYTLTISSLEPEDFAVYYCHQWSSFPYTFGGGTKVEIK: 2.12
F7.44.20-H13 (scFv, not shown: small tags and cut ends, also called S009-F7.44.20 humanized antibody VH2a + VL1) scFv: EVQLVQSGAEVKKPGASVKVSCKASGYTFTDYNMDWVRQAPGQGLEWMGDINPSTGGTIYNQKFSGRVTMTEDKSASTVYMELSSLRSEDTAVYYCARRRIGTGYFDVWGQGTTVTVSSGGGGSGGGGSGGGGSEIVLTQSPDFQSVTPKEKVTITCSASSSVISSYLSWYQQKPDQSPKLLIYRTSNLASGVPSRFSGSGSGTDFTLTINSLEAEDAATYYCHQWSSFPYTFGGGTKVEIK: 1.57

Then this binder:
[Q] Give OD450 for the following binder: F7.44.20-H10 (scFv, not shown: small tags and cut ends, also called S009-F7.44.20 humanized antibody VH2 + VL2) scFv: EVQLVQSGAEVKKPGASVKVSCKASGYTFTDYNMDWVRQAPGQGLEWMGDINPSTGGTIYNQKFNGRVTMTEDKSASTVYMELSSLRSEDTAVYYCARRRIGTGYFDVWGQGTTVTVSSGGGGSGGGGSGGGGSEIVLTQSPDFQSVTPKEKVTITCSASSSVISSYLSWYQQKPDQSPKLLIYRTSNLASGVPSRFSGSGSGTDYTLTINSLEAEDAATYYCHQWSSFPYTFGGGTKVEIK
[A] 2.25
